molecular target: S. pyogenes M1 GAS streptokinase expression, plasminogen activation OD405; experiment: S. pyogenes plasminogen activation signal decrease – absorbance readout, M1 GAS, streptokinase expression inhibitor project, dose response (AID 2137)
Inconclusive results are not listed.
Entries and their IC50 values follow.
outcome_measure: IC50

compound=COCc1cc(Sc2c(Cl)cccc2Cl)nc(-c2ccccc2)n1 system_under_test="S. pyogenes M1 GAS streptokinase expression, plasminogen activation OD405" meas_value="7.59 µM"
compound=Cc1cc(C)c2nc(-c3ccncc3)cc(C(=O)N3CCN(Cc4ccccc4Cl)CC3)c2c1 system_under_test="S. pyogenes M1 GAS streptokinase expression, plasminogen activation OD405" meas_value="9.54 µM"
compound="CC1CC(C)CN(c2ncc3c(n2)CC(c2ccccc2Cl)CC3=O)C1 (stereo not given)" system_under_test="S. pyogenes M1 GAS streptokinase expression, plasminogen activation OD405" meas_value="2.26 µM"
compound="CC(=O)N(C)c1ccc(OCC(O)Cn2c3ccc(Cl)cc3c3cc(Cl)ccc32)cc1 (stereo not given)" system_under_test="S. pyogenes M1 GAS streptokinase expression, plasminogen activation OD405" meas_value="4.94 µM"
compound=O=C(CSc1cccs1)N1c2ccccc2Sc2ccccc21 system_under_test="S. pyogenes M1 GAS streptokinase expression, plasminogen activation OD405" meas_value="33.8 µM"

All values here come from PubChem BioAssay AID2137.
